These measurements were taken from patent US12594349B2.

Tested on: human PCSK9 locus
Experiment: Secreted PCSK9 by ELISA in Huh7 cells transfected with mRNA and gRNA
Assay type: cell-based
Conditions: Huh7 cells, LTRP5-ADD-ZIM3 mRNA, 25 ng mRNA:12.5 ng gRNA, day 6, relative to non-targeting gRNA control
Protocol: To assess PCSK9 secretion, seeded Huh7 cells were transfected with mRNA encoding a catalytically-active CasX 676, dXR1, or LTRP5-ADD-ZIM3 and a gRNA with scaffold 316 and spacer targeting either the B2M or PCSK9 locus. Media supernatant was harvested at 6, 18, 36, and 87 days post-transfection to assess level of PCSK9 secretion by ELISA. […] As an additional control, PCSK9 secretion was also measured in the media supernatant harvested from wells containing untreated, naïve cells. […]
Doc: threshold 40% (exclusive). Items with Percent reduction in PCSK9 secretion beneath it return Met; others return Not met.

Some solved cases for reference:
TG-06-159 (guide GCGCGCCCCUUCACGCGCCC; listed as RNA, chemistry not given here)    Met
TG-06-342 (guide AAUUACAGGCAACAGGAAGG; listed as RNA, chemistry not given here)    Met

Query block: Please state whether Percent reduction in PCSK9 secretion is below 40% for TG-06-122 (guide CCUUUGUUUCUUCCCAGUAU; listed as RNA, chemistry not given here)
Result block: Met

Query block: Problem: For the substance TG-06-119 (guide GAGCAGGCCAUUUCACUCGG; listed as RNA, chemistry not given here) , is Percent reduction in PCSK9 secretion under 40%?
Result block: Met

Query block: Is the reported Percent reduction in PCSK9 secretion for TG-06-143 (guide GAAUCAAUCCUACUGUGGAC; listed as RNA, chemistry not given here) strictly below 40%?
Result block: Not met

Query block: Strictly below 40%: is that where Percent reduction in PCSK9 secretion of TG-06-147 (guide GUGUUUCCUGGGUCCACCUU; listed as RNA, chemistry not given here) sits?
Result block: Not met

Query block: Please state whether Percent reduction in PCSK9 secretion is below 40% for TG-06-117 (guide ACUUUGUUUGCAAAGACCUC; listed as RNA, chemistry not given here)
Result block: Met
